- System: Danio rerio larvae (5 dpf)
- procedure summary: difference in combined optomotor response to red, green and blue moving lines vs DMSO (percentage points); higher = stronger optomotor response than DMSO
- conditions: 10 µM; exposure time 6 h
Where a name gives a salt, the structure may show the parent alone.
Hi, to clarify the labels: Condition met covers difference from 4 upward, Condition not met covers anything below 4.

• Cn1nnc(-c2ccc(-c3ccc(N4C[C@H](COP(=O)(O)O)OC4=O)cc3F)cn2)n1 [Tedizolid Phosphate] = Condition not met
• Oc1ccc(C2CNCCc3c2cc(O)c(O)c3Cl)cc1 (stereo not given) [Fenoldopam (mesylate)] = Condition not met
• C[C@@H](O)[C@H]1C(=O)N2C(C(=O)O)=C(S[C@@H]3CN[C@H](CNS(N)(=O)=O)C3)[C@H](C)[C@H]12 [Doripenem (hydrate)] = Condition not met
• CCCS(=O)(=O)Nc1ccc(F)c(C(=O)c2c[nH]c3ncc(-c4ccc(Cl)cc4)cc23)c1F = Condition not met
• COc1cc(Cc2cnc(N)nc2N)cc(OC)c1OC = Condition met
• OC(CCN1CCCCC1)(c1ccccc1)C1CC2C=CC1C2 (stereo not given) [Biperiden (hydrochloride)] = Condition not met
• COC(=O)N[C@H](C(=O)N1CCC[C@H]1c1nc(-c2ccc3c(c2)O[C@@H](c2ccccc2)n2c-3cc3cc(-c4c[nH]c([C@@H]5CCCN5C(=O)[C@@H](NC(=O)OC)C(C)C)n4)ccc32)c[nH]1)C(C)C = Condition not met
• COc1cc2nc(N(C)CCCNC(=O)C3CCCO3)nc(N)c2cc1OC (stereo not given) [Alfuzosin (hydrochloride)] = Condition not met
• CC1=C(C(=O)O)N2C(=O)[C@@H](NC(=O)[C@H](N)c3ccc(O)cc3)[C@H]2SC1 [Cefadroxil (hydrate)] = Condition met
• CC(=O)Nc1cccc(-n2c(=O)n(C3CC3)c(=O)c3c(Nc4ccc(I)cc4F)n(C)c(=O)c(C)c32)c1 = Condition met
• CCCCNc1cc(C(=O)O)cc(S(N)(=O)=O)c1Oc1ccccc1 [Bumetanide] = Condition not met
• O=c1[nH]c(=O)n([C@H]2C[C@H](O)[C@@H](CO)O2)cc1F = Condition not met
• CC(C)CN(C[C@@H](OP(=O)(O)O)[C@H](Cc1ccccc1)NC(=O)O[C@H]1CCOC1)S(=O)(=O)c1ccc(N)cc1 [Fosamprenavir (calcium salt)] = Condition met
• Cc1ccc(-c2cc(C(F)(F)F)nn2-c2ccc(S(N)(=O)=O)cc2)cc1 = Condition not met
